Every entry's value here was drawn from patent US11396501B2.

Target: UniProt:P61073
Assay: HPB-ALL CXCR4 competitive binding assay (12G5 binding assay)
Design: HPB-ALL cells were maintained in RPMI-1640 (Gibico) supplemented with 10% FBS (Hyclone); endogenous in cells; host or cells: HPB-ALL cells
Conditions: HPB-ALL cells; competition with APC-conjugated anti-human CXCR4 clone 12G5 at its EC80; 4° C. for 3 h; FACS
# IC50 listing for each entry below
# unit: nM | format: bare number

Examples with their reported IC50 follow.
[[record]]
molecule = "Cc1ccc([C@@H]2CCCN2Cc2cc(N3CCN(C)CC3)nc(C)n2)nc1"
assay_system = "UniProt:P61073"
numeric_value = 279

[[record]]
molecule = "Cc1nc(CN2CCCC2c2ccccn2)cc(N2CCN(C)CC2)n1 (centres unmarked)"
assay_system = "UniProt:P61073"
numeric_value = 165

[[record]]
molecule = "Cc1nc(CN(C)c2cccc3cccnc23)c(C#N)c(N2CCN(C)CC2)n1"
assay_system = "UniProt:P61073"
numeric_value = 1170

[[record]]
molecule = "Cc1nc(CN(C)[C@H]2CCCc3cccnc32)c(C)c(N2CCN(C)CC2)n1"
assay_system = "UniProt:P61073"
numeric_value = 8.8

[[record]]
molecule = "Cc1nc(CN(C)[C@H]2CCCc3cccnc32)cc(N2CCN(C)[C@@H](C)C2)n1"
assay_system = "UniProt:P61073"
numeric_value = 20

[[record]]
molecule = "Cc1nc([C@H]2CCN2[C@H]2CCCc3cccnc32)cc(N2CCN(C)CC2)n1"
assay_system = "UniProt:P61073"
numeric_value = 62


[ask] Can you share its IC50? I mean this molecule: CSc1nc(CN2CCCC2c2ccccn2)cc(N2CCN(C)CC2)n1 (centres unmarked)
[reply] 142

[ask] Same question, CSc1nc(CN(C)C2CCCc3cccnc32)c(C)c(N2CCN(C)CC2)n1 (centres unmarked) this time
[reply] 7.9

====

Target: CXCR4 (Homo sapiens, UniProt P61073)
Sequence (P61073 whole entry): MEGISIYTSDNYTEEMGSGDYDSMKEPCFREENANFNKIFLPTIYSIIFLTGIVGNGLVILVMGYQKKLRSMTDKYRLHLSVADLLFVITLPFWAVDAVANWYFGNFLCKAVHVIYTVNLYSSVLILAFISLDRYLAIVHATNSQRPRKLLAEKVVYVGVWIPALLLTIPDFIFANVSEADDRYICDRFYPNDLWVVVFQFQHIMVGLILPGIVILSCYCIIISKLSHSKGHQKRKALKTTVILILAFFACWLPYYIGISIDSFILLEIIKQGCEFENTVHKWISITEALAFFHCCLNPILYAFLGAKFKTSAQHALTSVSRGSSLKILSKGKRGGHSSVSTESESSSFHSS
Test: HPB-ALL CXCR4 competitive binding assay (12G5 binding assay)
Set-up: HPB-ALL cells were maintained in RPMI-1640 (Gibico) supplemented with 10% FBS (Hyclone); endogenous in cells; host or cells: HPB-ALL cells
Conditions: HPB-ALL cells; competition with APC-conjugated anti-human CXCR4 clone 12G5 at its EC80; 4° C. for 3 h; FACS
# IC50 listing for each entry below
# unit: nM | format: bare number

Examples with their reported IC50 follow.
[[record]]
molecule = "CN1CCN(c2cc(CN(C)[C@H]3CCCc4cccnc43)nc(C(F)(F)F)n2)CC1"
numeric_value = 240

[[record]]
molecule = "CSc1nc(CN(C)C(CCCCNC(=O)OC(C)(C)C)c2ccccn2)cc(N2CCN(C)CC2)n1 (stereo not drawn)"
numeric_value = 5730


[ask] Reported IC50 for CXCR4 (Homo sapiens, UniProt P61073), given CNc1nc(CN(C)C2CCCc3cccnc32)cc(N2CCN(C)CC2)n1 (stereo not drawn) ?
[reply] 43

[ask] Same question, "Cc1nc(CN2CCC[C@H]2c2ncccc2C)cc(N2CCN(C)CC2)n1" this time
[reply] 68

[ask] Same question, "Cc1nc(CN(C)c2cccc3cccnc23)cc(N2CCN(C)[C@H](C)C2)n1" this time
[reply] 55

[ask] Same question, CN1CCN(c2ccnc(CN(C)C3CCCc4cccnc43)n2)CC1 (stereo not drawn) this time
[reply] 211

[ask] Same question, CN(C)CCN(C)c1cc(CN(C)C2CCCc3cccnc32)ncn1 (stereo not drawn) this time
[reply] 228

[ask] Same question, CN1CCN(c2cc(CN(C)C3CCCc4cccnc43)nc(N)n2)CC1 (stereo not drawn) this time
[reply] 17

[ask] Same question, "CCN(Cc1cc(N2CCN(C)CC2)nc(C)n1)c1cccc2cccnc12" this time
[reply] 151

[ask] Same question, Cc1cccc(C(C)N(C)Cc2cc(N3CCN(C)CC3)nc(C)n2)n1 (stereo not drawn) this time
[reply] 131

[ask] Same question, "Cc1nc([C@H]2CCN2[C@@H]2CCCc3cccnc32)cc(N2CCN(C)CC2)n1" this time
[reply] 8110

[ask] Same question, Cc1nc(CN(CC2CC2)C2CCCc3cccnc32)cc(N2CCN(C)CC2)n1 (stereo not drawn) this time
[reply] 63

====

# IC50 listing for each entry below
Molecular target: CXCR4 (Homo sapiens)
Assay: HPB-ALL CXCR4 competitive binding assay (12G5 binding assay)
Set-up: HPB-ALL cells were maintained in RPMI-1640 (Gibico) supplemented with 10% FBS (Hyclone); endogenous in cells; host or cells: HPB-ALL cells
Details: HPB-ALL cells; competition with APC-conjugated anti-human CXCR4 clone 12G5 at its EC80; 4° C. for 3 h; FACS
# unit: nM | format: bare number

Examples with their reported IC50 follow.
[[record]]
compound = "CSc1nc([C@H](C)N(C)[C@H]2CCCc3cccnc32)cc(N2CCN(C)CC2)n1 [Compound A32]"
value_type = "IC50"
numeric_value = 22

[[record]]
compound = "Cc1nc(CN(C)C2=C(F)CCc3cccnc32)cc(N2CCN(C)CC2)n1 [Compound D1]"
value_type = "IC50"
numeric_value = 18


Could you now look at the following compound, please?
[ask] Can you share its IC50? I mean this compound: CCN1CCN(c2cc(CN(C)C3c4ncccc4CCC34CC4)nc(C)n2)CC1 (stereo not drawn) [Compound A45]
[reply] 886

====

# IC50 listing for each entry below
Biological target: CXCR4 (Homo sapiens)
Test: HPB-ALL CXCR4 competitive binding assay (12G5 binding assay)
Design: HPB-ALL cells were maintained in RPMI-1640 (Gibico) supplemented with 10% FBS (Hyclone); endogenous in cells; host or cells: HPB-ALL cells
Settings: HPB-ALL cells; competition with APC-conjugated anti-human CXCR4 clone 12G5 at its EC80; 4° C. for 3 h; FACS
# unit: nM | format: bare number

Examples with their reported IC50 follow.
[[record]]
compound = "CN(Cc1cc(NCCN2CCOCC2)ncn1)C1CCCc2cccnc21 (centres unmarked)"
units = "nM"
numeric_value = 41

[[record]]
compound = "Cc1nc(CN(C)C2CCCc3cccnc32)c(C#N)c(N2CCN(C)CC2)n1 (centres unmarked)"
units = "nM"
numeric_value = 9

[[record]]
compound = "CC(C)c1nc(CN(C)C2CCCc3cccnc32)cc(N2CCN(C)CC2)n1 (centres unmarked)"
units = "nM"
numeric_value = 78


[ask] Can you share its IC50? I mean this compound: COCCN1CCN(c2cc(CN(C)C3CCCc4cccnc43)ncn2)CC1 (centres unmarked)
[reply] 1140

[ask] Same question, "Cc1nc([C@H]2C[C@@H](O)CN2[C@H]2CCCc3cccnc32)cc(N2CCN(C)CC2)n1" this time
[reply] 7.74

[ask] Same question, CSc1nc(CN(C)C2CCCc3cccnc32)cc(N2CCN(C)CC2)n1 (centres unmarked) this time
[reply] 19

[ask] Same question, "Cc1nc(CN(CCCCN)c2cccc3cccnc23)cc(N2CCN(C)CC2)n1" this time
[reply] 338

[ask] Same question, "Cc1nc(CN(C)[C@H]2CCCc3cccnc32)cc(N2C[C@@H](C)N(C)[C@@H](C)C2)n1" this time
[reply] 12

[ask] Same question, CN1CCN(c2cc(CN(C)C3CCCc4cccnc43)nc(-c3cnn(C)c3)n2)CC1 (centres unmarked) this time
[reply] 790

====

Molecular target: CXCR4 (Homo sapiens, UniProt P61073)
Experiment: FLIPR Tetra calcium mobilization assay
Assay type: cell-based
Conditions: Human CD4+ T-Cells; CXCL12 added; FLIPR Calcium 4 assay kit
value_type: IC50 (nM)
# unit: nM | format: bare number

[[record]]
item_smiles = "Cc1nc(CN(C)[C@@H](C)c2ccccn2)cc(N2CCN(C)CC2)n1"
units = "nM"
numeric_value = 0.09

[[record]]
item_smiles = "Cc1nc(CN2CCC[C@H]2c2ncccc2C)cc(N2CCCN(C)CC2)n1"
units = "nM"
numeric_value = 0.5

[[record]]
item_smiles = "Cc1nc(CN(C)c2cccc3cccnc23)c(CO)c(N2CCN(C)CC2)n1"
units = "nM"
numeric_value = 0.95

[[record]]
item_smiles = "Cc1nc(CN(C)c2cccc3cccnc23)c(F)c(N2CCN(C)CC2)n1"
units = "nM"
numeric_value = 0.83

[[record]]
item_smiles = "Cc1nc(CN2CCC[C@H]2c2ncccc2C)cc(NCCN2CCOCC2)n1"
units = "nM"
numeric_value = 2.7


Could you now look at the following compound, please?
[ask] Can you share its IC50? I mean this compound: "CCN(Cc1cc(N2CCN(C)CC2)nc(C)n1)c1cc(C)cc2cccnc12"
[reply] 0.53

====

Biological target: UniProt:P61073
Assay: FLIPR Tetra calcium mobilization assay
Assay type: cell-based
Settings: Human CD4+ T-Cells; CXCL12 added; FLIPR Calcium 4 assay kit
# log10 of IC50 listing for each entry below
Reminder: these figures are log10 of reported IC50, in nM before transformation.

Examples with their reported log10 of IC50 follow.
[[record]]
molecule = "Cc1nc(CN(C)c2c(C(F)(F)F)ccc3cccnc23)cc(N2CCN(C)CC2)n1 [Compound D48]"
numeric_value = 2.97

[[record]]
molecule = "Cc1nc(CN(CCCC(=O)OC(C)(C)C)c2cccc3cccnc23)cc(N2CCN(C)CC2)n1 [Compound D29]"
numeric_value = 1.10

[[record]]
molecule = "Cc1nc(CN(C)c2ccc(C(F)(F)F)c3cccnc23)cc(N2CCN(C)CC2)n1 [Compound D40]"
numeric_value = 3.45

[[record]]
molecule = "Cc1nc(CN(C)[C@@H](C)c2ccccn2)c(CO)c(N2CCN(C)[C@H](C)C2)n1 [Compound A89]"
numeric_value = -0.89

[[record]]
molecule = "Cc1nc(CN(C)c2c(C#N)ccc3cccnc23)cc(N2CCN(C)CC2)n1 [Compound D50]"
numeric_value = 1.15

[[record]]
molecule = "C[C@@H](c1ccccn1)N(C)Cc1cn2c(N3CCN4CCC[C@@H]4C3)cccc2n1 [Compound A98]"
numeric_value = -0.82


Could you now look at the following molecule, please?
[ask] Can you share its log10 of IC50? I mean this molecule: Cc1nc(CN(C)c2cccc3cccnc23)cc(N2CCN(C3CC3)CC2)n1 [Compound D8]
[reply] 0.15
